# Target system: CYP2D6 (Homo sapiens)
# Sequence (P10635 whole entry): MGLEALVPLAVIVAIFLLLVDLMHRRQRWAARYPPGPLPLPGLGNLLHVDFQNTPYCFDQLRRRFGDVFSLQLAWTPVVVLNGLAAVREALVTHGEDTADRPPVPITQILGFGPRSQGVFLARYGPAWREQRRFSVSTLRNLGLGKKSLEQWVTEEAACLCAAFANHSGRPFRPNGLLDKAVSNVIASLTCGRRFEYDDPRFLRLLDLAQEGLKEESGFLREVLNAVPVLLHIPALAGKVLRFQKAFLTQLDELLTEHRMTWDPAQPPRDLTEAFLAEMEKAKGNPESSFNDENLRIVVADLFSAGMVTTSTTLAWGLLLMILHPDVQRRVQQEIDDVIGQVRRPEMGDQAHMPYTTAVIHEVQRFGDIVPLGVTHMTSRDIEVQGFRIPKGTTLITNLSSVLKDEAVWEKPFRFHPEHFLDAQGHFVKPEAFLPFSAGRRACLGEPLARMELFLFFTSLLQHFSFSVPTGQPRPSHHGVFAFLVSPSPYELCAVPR
# Assay summary: Inhibition of CYP2D6 in human liver microsomes using dextromethorphan as substrate at 10 uM preincubated for 5 mins followed by substrate addition and measured after 20 mins by LC-MS analysis relative to control
# Type: ADME, Microsome
# Experimental parameters: probe dextromethorphan, time 25 min
Quick reference: inhibition at 20 min, 10 µM of the listed items.
Report the value in % with no unit label.

- Entry smiles: "O=C(Nc1ccc(N2CCC3(CCC3)CC2)c(C(F)(F)F)c1)c1ccc(C(=O)N2C[C@@H]3C[C@H]2CO3)nc1"
  inhibition at 20 min, 10 µM / %: 24.9

Below: the item to evaluate.
Name the reported inhibition at 20 min, 10 µM value associated with the molecule O=C(Nc1ccc(N2CCC3(CCC3)CC2)c(C(F)(F)F)c1)c1ccc(CN2C[C@@H]3C[C@H]2CO3)nc1
35.2
